Target: human TrkA receptor (Homo sapiens (Human), UniProt P04629)
Sequence (P04629 33-796): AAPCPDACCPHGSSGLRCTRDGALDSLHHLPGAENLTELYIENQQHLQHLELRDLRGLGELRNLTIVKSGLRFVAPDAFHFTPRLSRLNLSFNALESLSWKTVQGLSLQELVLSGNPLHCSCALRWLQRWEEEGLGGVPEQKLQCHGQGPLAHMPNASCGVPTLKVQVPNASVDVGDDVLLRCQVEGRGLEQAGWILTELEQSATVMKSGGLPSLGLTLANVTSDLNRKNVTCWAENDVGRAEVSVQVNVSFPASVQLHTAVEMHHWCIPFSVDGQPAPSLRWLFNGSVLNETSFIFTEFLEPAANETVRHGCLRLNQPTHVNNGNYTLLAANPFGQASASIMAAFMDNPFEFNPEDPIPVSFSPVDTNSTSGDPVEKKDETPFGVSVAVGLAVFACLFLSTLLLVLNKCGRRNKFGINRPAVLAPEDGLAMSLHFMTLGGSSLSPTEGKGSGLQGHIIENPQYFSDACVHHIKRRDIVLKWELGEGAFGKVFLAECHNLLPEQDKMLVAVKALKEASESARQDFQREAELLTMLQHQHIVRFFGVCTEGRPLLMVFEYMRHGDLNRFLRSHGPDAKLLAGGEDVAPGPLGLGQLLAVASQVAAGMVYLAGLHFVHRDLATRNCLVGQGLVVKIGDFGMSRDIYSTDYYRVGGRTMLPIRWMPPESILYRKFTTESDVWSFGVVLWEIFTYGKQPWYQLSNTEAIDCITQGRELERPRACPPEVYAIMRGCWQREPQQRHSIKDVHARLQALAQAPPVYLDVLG
Test: DiscoverX PathHunter TrkA functional assay (NGF-stimulated U2OS cells)
Conditions: U2OS cells expressing human TrkA-PK, Shc1-EA and p75NTR; compound 1 h, then NGF at ~80% of maximal response for 3 h; luminescence
Criterion: IC50 strictly under 5 nM. Met: yes. Not met: no.

- Cn1ccc(-c2cc(C(=O)Nc3cnc(CN4C(=O)COC4=O)nc3-c3ccccc3)c(F)cc2C(F)(F)F)n1: yes

Request: Does this molecule meet the criterion IC50 < 5 nM? NC(=O)Cc1ccc(NC(=O)c2cc(-c3ccccn3)c(C(F)(F)F)cc2F)c(-c2ccccc2)n1
Response: no

Request: What about this molecule? Cc1ncc(NC(=O)c2ccc(C(F)(F)F)c(-c3ccn(C)n3)c2)c(-c2ccc(F)cc2)n1
Response: no

Request: What about this molecule? O=C(Nc1cc(-c2cccnc2)cnc1-c1ccccc1)c1ccc(C(F)(F)F)cc1
Response: no

Request: What about this molecule? Cn1ccc(-c2cc(C(=O)Nc3cnc(CNC(=O)CO)cc3-c3ccccc3)ccc2C(F)(F)F)n1
Response: no

Request: What about this molecule? Cn1ccc(-c2cc(C(=O)Nc3cnc(CC(=O)NCC4CCOC4)nc3-c3ccccc3)c(F)cc2C(F)(F)F)n1 (stereo not drawn)
Response: no

Request: What about this molecule? Cn1ccc(-c2cc(C(=O)Nc3cnc(Cn4cn[nH]c4=O)nc3-c3ccccc3)c(F)cc2C(F)(F)F)n1
Response: yes
